# System: MCF7 breast
# protocol.description: NCI tumour cell line growth inhibition, 48 h
Label rule, in plain words: TGI of 3 µM and up is Condition met, under 3 µM is Condition not met.

C[n+]1ccc(-c2c3nc(c(-c4ccc5c(ccc[n+]5C)c4)c4ccc([nH]4)c(-c4cc[n+](C)cc4)c4nc(c(-c5ccc6c(ccc[n+]6C)c5)c5ccc2[nH]5)C=C4)C=C3)cc1    Condition met
COc1cccc(-n2c(N)c(-c3nc4cc(C(F)(F)F)ccc4s3)c3ccc([N+](=O)[O-])cc3c2=O)c1    Condition met
O=C1c2cccnc2C(=O)c2c1c(C(=O)OCCN1CCOCC1)c1ccccn21    Condition not met

Is TGI for Cc1cccc(NC(=S)N/N=C(/c2ccccc2)c2ccccn2)c1 at or above 3 µM? Condition not met

Try the molecule O=C(O)CNS(=O)(=O)c1ccc(NC(=O)Nc2ccccc2)cc1 Condition met

Here is the next molecule: CC(=O)OCc1cn(S(=O)(=O)c2ccc(C)cc2)cn1 Condition met

----------
# Tested on: SF-268 CNS
# protocol.description: NCI tumour cell line growth inhibition, 48 h
Each item that follows carries a reported TGI.

COc1ccc(CC2C3=C(CCCC3)CCN2C)cc1 (stereo unspecified)    > 100 µM

Any idea what TGI came out for C/C(=N\Nc1nc2ccccc2o1)c1ccncn1 on SF-268 CNS? > 53.8 µM

Same lookup for CC(=O)OCc1cn(S(=O)(=O)c2ccc(C)cc2)cn1 , please. 97.5 µM

Now the same for Nc1nc2c(c3cnccc13)C(c1cccc(Cl)c1)Cc1cnccc1-2 (stereo unspecified) 16.5 µM

Again, but for COc1cc2c3c(c4c5ccccc5[nH]c4c2c(OC)c1OC)C(=O)N(CCN1CCCCC1)C3=O 2.96 µM

Now consider O=[N+]([O-])c1ccc(-c2cn(-c3ccc(Cl)cc3)cn2)cc1 and answer again. > 100 µM

----------
# System: LXFL 529 NSCLC
# protocol.description: NCI tumour cell line growth inhibition, 48 h
Here the recorded TGI is given for each entry.

COc1ccc(/C(C)=N/NC(N)=S)c(OC)c1    > 100 µM
CC(Oc1ccc2cc(C(=O)c3ccccc3)c(=O)oc2c1)C(=O)O (stereo not given)    > 100 µM

What measured TGI goes with Cn1c(=O)c2nc(N3CCCCC3)cnc2n(C)c1=O ? > 100 µM

Try the compound CC1=C(c2cc(C(=O)Nc3nccs3)nc(NC#N)n2)Sc2ccccc2N1 > 100 µM

----------
# System: HOP-62 NSCLC
# protocol.description: NCI tumour cell line growth inhibition, 48 h
*1 amine or outer side, *2 acyl side, *3 side chain or, on linkers, in order; H or OH if unused. Where a SMILES comes first, the peptide text is derived from it. Bridges are numbered along the chain shown (N, C = ends). [ ]: non-standard residue; d: D form. The star is where a group is joined. Phe(3-Me) = Cc1cccc(C[C@H](N)C(=O)O)c1; NH(4-Cl-2-F-phenyl) = Fc1cc(Cl)ccc1N*; Pro(4R-Me) = C[C@H]1CN[C@H](C(=O)O)C1; Propanoyl(3-NMe2) = CN(C)CCC(=O)*; Hyp = O=C(O)[C@@H]1C[C@@H](O)CN1; aThr = C[C@H](O)[C@H](N)C(=O)O; Pip = O=C(O)[C@@H]1CCCCN1; CO = O=C([*:1])[*:2]
experimental.endpoint: GI50

Here are 2 compounds together with their reported answers.
C=C1N(C)c2ccc(Cl)cc2C1(C)C    11200 nM
Cc1cccc(C[C@H](NC(=O)Nc2ccc(Cl)cc2F)C(=O)N[C@@H]2C(=O)N3C[C@H](OC(=O)CCN(C)C)C[C@H]3C(=O)N3CCCC[C@H]3C(=O)N[C@@H](C)C(=O)N3C[C@H](C)C[C@H]3C(=O)O[C@H]2C)c1 ({NH(4-Cl-2-F-phenyl)-CO}-[Phe(3-Me)][aThr][Hyp](Propanoyl(3-NMe2))[Pip]A[Pro(4R-Me)]; ester 2-C)    536 nM

# next compound below
Query for HOP-62 NSCLC: what GI50 does the record show for O=c1cccc(C#CC#C/C=C/CO)o1 ? 2080 nM
